- conditionInfo: in methyl acetate, 313.15 K
observable: solubility (mole fraction)
A bare number is all that is needed in reply.

Problem: For the compound `CC(C)[C@H](N)C(=O)O` , what solubility (mole fraction) is on record?
Solution: 6.7e-05

* * *

- conditionInfo: in n-propanol, 318.15 K
observable: solubility (mole fraction)
A bare number is all that is needed in reply.

Problem: For the molecule `CC(C)[C@H](N)C(=O)O` , what solubility (mole fraction) is on record?
Solution: 6.4e-05

* * *

- conditionInfo: in methyl acetate, 318.15 K
observable: solubility (mole fraction)
A bare number is all that is needed in reply.

Problem: For the compound `CC(C)[C@H](N)C(=O)O` , what solubility (mole fraction) is on record?
Solution: 8.8e-05
